- measuredTarget: HLA-B*27:05
- methodDescription: IEDB peptide-MHC binding, purified MHC/competitive/fluorescence; filed as Kd, often an IC50 or EC50 that approximates it; bounds were set here for any values at or beyond the usual limits of such assays
- statedConditions: source organism: Zaire ebolavirus
parameterMeasured: Kd (nM)
Field format: number, assumed nM, no unit text.

[Q] What value of Kd has been recorded for this entry: "KQIPIWLPL"
[A] 316

---

- measuredTarget: HLA-A*26:01
- methodDescription: IEDB peptide-MHC binding, purified MHC/competitive/fluorescence; filed as Kd, often an IC50 or EC50 that approximates it; bounds were set here for any values at or beyond the usual limits of such assays
- statedConditions: source organism: Homo sapiens
I'd be grateful if you could share measured Kd for these entries.

[Q] Recorded Kd for "TLKDGDFIL" , please?
[A] ≥ 20 µM

[Q] Further, for "IYDFYYLDY" ?
[A] ≥ 20 µM

[Q] Check "FWAWSVLRV" too.
[A] ≥ 20 µM

---

- measuredTarget: HLA-A*33:01
- methodDescription: IEDB peptide-MHC binding, purified MHC/competitive/radioactivity; filed as Kd, often an IC50 or EC50 that approximates it; bounds were set here for any values at or beyond the usual limits of such assays
- statedConditions: source organism: Lymphocytic choriomeningitis virus (strain Traub)
pKd: −log10 of the molar value.
parameterMeasured: pKd

[Q] Under HLA-A*33:01: pKd value of "KCHDHYLCRH" ?
[A] ≤ 4.15

---

- measuredTarget: HLA-B*18:01
- methodDescription: IEDB peptide-MHC binding, purified MHC/direct/fluorescence; filed as Kd, often an IC50 or EC50 that approximates it; bounds were set here for any values at or beyond the usual limits of such assays
- statedConditions: source organism: Mycobacterium tuberculosis
parameterMeasured: pKd
The read-out pKd is expressed as -log10 of concentration in moles per litre.

[Q] // pKd lookup, key: "RPAGARAAF"
[A] 4.93

---

- measuredTarget: HLA-A*02:01
- methodDescription: IEDB peptide-MHC binding, cellular MHC/competitive/fluorescence; bounds were set here for any values at or beyond the usual limits of such assays
- statedConditions: source organism: Homo sapiens
parameterMeasured: IC50 (nM)
Write the answer as a number in nM, unit excluded.

[Q] Any idea what IC50 was measured for "ALVVQVAEA" ?
[A] 2580

---

- measuredTarget: HLA-C*12:03
- methodDescription: IEDB peptide-MHC binding, purified MHC/direct/fluorescence; filed as Kd, often an IC50 or EC50 that approximates it; bounds were set here for any values at or beyond the usual limits of such assays
- statedConditions: source organism: Squirrelpox virus
parameterMeasured: pKd
The value called pKd is obtained by taking minus log10 of the concentration in mol/L.

[Q] Notebook entry, HLA-C*12:03 assay: pKd of "MACHRVLTY" = ?
[A] 7.74

---

- measuredTarget: HLA-A*01:01
- methodDescription: IEDB peptide-MHC binding, purified MHC/direct/fluorescence; filed as Kd, often an IC50 or EC50 that approximates it; bounds were set here for any values at or beyond the usual limits of such assays
- statedConditions: source organism: Pseudomonas aeruginosa
parameterMeasured: Kd (nM)
Respond numerically; units are nM and should not be typed.

[Q] What is its Kd for HLA-A*01:01? Entry: "ALEPGFKDY"
[A] 2000

---

- measuredTarget: HLA-A*31:01
- methodDescription: IEDB peptide-MHC binding, purified MHC/direct/fluorescence; filed as Kd, often an IC50 or EC50 that approximates it; bounds were set here for any values at or beyond the usual limits of such assays
- statedConditions: source organism: Homo sapiens
parameterMeasured: pKd
Worth noting: pKd values are minus log10 of concentrations stated in mol/L.

[Q] Give recorded pKd with HLA-A*31:01 for the following sequence: "RVMAPRALL"
[A] 6.85

---

- measuredTarget: HLA-A*01:01
- methodDescription: IEDB peptide-MHC binding, purified MHC/direct/fluorescence; filed as Kd, often an IC50 or EC50 that approximates it; bounds were set here for any values at or beyond the usual limits of such assays
- statedConditions: source organism: Homo sapiens
parameterMeasured: pKd
Kindly note that pKd refers to -log10 of the concentration in mol/L and answer with the value alone.

[Q] For HLA-A*01:01, provide pKd of "ETEQPTLDY" please.
[A] 7.79

---

- measuredTarget: HLA-B*15:17
- methodDescription: IEDB peptide-MHC binding, purified MHC/competitive/fluorescence; filed as Kd, often an IC50 or EC50 that approximates it; bounds were set here for any values at or beyond the usual limits of such assays
- statedConditions: source organism: Reston ebolavirus
pKd: −log10 of the molar value.
parameterMeasured: pKd

[Q] Can you share its pKd? I mean this sequence: "LPRERFRKT"
[A] ≤ 4.70

---

- measuredTarget: HLA-B*40:01
- methodDescription: IEDB peptide-MHC binding, purified MHC/direct/fluorescence; filed as Kd, often an IC50 or EC50 that approximates it; bounds were set here for any values at or beyond the usual limits of such assays
- statedConditions: source organism: Orthohantavirus andesense
pKd: −log10 of the molar value.
parameterMeasured: pKd

[Q] Query: pKd; subject: "AYDHGNVIL"
[A] ≤ 4.70

---

- measuredTarget: HLA-B*40:01
- methodDescription: IEDB peptide-MHC binding, purified MHC/direct/fluorescence; filed as Kd, often an IC50 or EC50 that approximates it; bounds were set here for any values at or beyond the usual limits of such assays
- statedConditions: source organism: Influenza A virus (A/swine/Hong Kong/2106/98(H9N2))
parameterMeasured: Kd (nM)
Numeric answer only, unit nM assumed.

[Q] Can you share its Kd? I mean this sequence: "GENMAPEKV"
[A] 168

---

- measuredTarget: HLA-B*07:02
- methodDescription: IEDB peptide-MHC binding, purified MHC/competitive/fluorescence; bounds were set here for any values at or beyond the usual limits of such assays
- statedConditions: source organism: Vaccinia virus Copenhagen
parameterMeasured: pIC50
The meaning of pIC50 here: minus log10 of the concentration in molar units.

[Q] For the sequence shown here, "LAKAIITPI" , give the reported pIC50.
[A] 4.25

---

Answer each item with its documented Kd.
- measuredTarget: HLA-A*01:01
- methodDescription: IEDB peptide-MHC binding, purified MHC/direct/fluorescence; filed as Kd, often an IC50 or EC50 that approximates it; bounds were set here for any values at or beyond the usual limits of such assays
- statedConditions: source organism: Marburg virus - Musoke, Kenya, 1980

[Q] Data request, read-out Kd, for "IFDDLQGSL"
[A] ≥ 20 µM

[Q] Moving on to "NRWKSWFSY"
[A] ≥ 20 µM

---

Task for the reader: assign each of the following sequences its reported Kd.
- measuredTarget: HLA-A*24:02
- methodDescription: IEDB peptide-MHC binding, purified MHC/competitive/radioactivity; filed as Kd, often an IC50 or EC50 that approximates it; bounds were set here for any values at or beyond the usual limits of such assays
- statedConditions: source organism: Dengue virus 4 Philippines/H241/1956
Report as a plain number; the unit nM is understood.

[Q] Given the sequence "VMLLVHYAI" , what is its reported Kd?
[A] 54.4

[Q] Also "LLLMRTTWAF" ?
[A] 292

---

- measuredTarget: HLA-B*08:01
- methodDescription: IEDB peptide-MHC binding, purified MHC/competitive/fluorescence; filed as Kd, often an IC50 or EC50 that approximates it; bounds were set here for any values at or beyond the usual limits of such assays
- statedConditions: source organism: Homo sapiens
parameterMeasured: Kd

[Q] Tell me the measured Kd of "TYSPALNKM" , please.
[A] ≥ 20 µM

---

- measuredTarget: HLA-B*27:05
- methodDescription: IEDB peptide-MHC binding, purified MHC/direct/fluorescence; filed as Kd, often an IC50 or EC50 that approximates it; bounds were set here for any values at or beyond the usual limits of such assays
- statedConditions: source organism: West Nile virus
pKd: −log10 of the molar value.
parameterMeasured: pKd

[Q] Item: "FVDVGVSAL" Test system: HLA-B*27:05 Read-out: pKd Value: ?
[A] ≤ 4.70

---

- measuredTarget: HLA-A*24:03
- methodDescription: IEDB peptide-MHC binding, purified MHC/competitive/fluorescence; filed as Kd, often an IC50 or EC50 that approximates it; bounds were set here for any values at or beyond the usual limits of such assays
- statedConditions: source organism: Vibrio vulnificus CMCP6
parameterMeasured: Kd

[Q] Look at this sequence and give its reported Kd. "WLAGFEPSE"
[A] ≥ 20 µM

---

- measuredTarget: HLA-A*69:01
- methodDescription: IEDB peptide-MHC binding, purified MHC/direct/fluorescence; filed as Kd, often an IC50 or EC50 that approximates it; bounds were set here for any values at or beyond the usual limits of such assays
- statedConditions: source organism: Escherichia coli O157:H7
pKd: −log10 of the molar value.
parameterMeasured: pKd

[Q] Fill in the recorded pKd for this sequence, with HLA-A*69:01 as test system: "VTRQIHNPR"
[A] ≤ 4.70

Source listed as the Immune Epitope Database (IEDB).
